src = ChEMBL document CHEMBL4673352

Target: Mitogen-activated protein kinase 8 (Homo sapiens, UniProt P45983)
Sequence (P45983 whole entry): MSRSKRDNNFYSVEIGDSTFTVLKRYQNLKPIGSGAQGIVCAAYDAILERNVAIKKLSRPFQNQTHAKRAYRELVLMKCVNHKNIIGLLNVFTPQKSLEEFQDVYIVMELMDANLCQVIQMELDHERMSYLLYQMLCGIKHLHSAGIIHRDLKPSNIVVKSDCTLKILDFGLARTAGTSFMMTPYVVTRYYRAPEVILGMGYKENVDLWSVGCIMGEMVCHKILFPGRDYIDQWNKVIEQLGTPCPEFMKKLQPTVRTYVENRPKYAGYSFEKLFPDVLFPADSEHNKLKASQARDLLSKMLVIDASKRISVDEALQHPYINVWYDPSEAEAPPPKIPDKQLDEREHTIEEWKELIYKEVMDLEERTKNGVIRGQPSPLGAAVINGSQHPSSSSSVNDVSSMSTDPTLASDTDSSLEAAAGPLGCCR
Assay: Inhibition of JNK1 (unknown origin) in presence of 5 mM ATP
measurement-type: IC50 (nM)
Form entry: value (nM) — number only.

[Q] If you can, please state the reported IC50 value of `CC(=O)N[C@@H]1CCC[C@H](C(=O)Nc2cc(-c3cnn4c3CC(C)(C)C4)c(Cl)cn2)C1` .
[A] 2800

* * *

Assay: Solubility of compound in phosphate buffer at pH 7.4 using dried form of sample
Assay type: physicochemical
Details: phosphate buffer, read-out: solubility
measurement-type: solubility

COc1cc(F)ccc1-c1ccnc(NC(=O)[C@H]2CCC[C@@H](NC(C)=O)C2)c1 : 33 µM
CC(=O)N[C@@H]1CC[C@H](C(=O)Nc2cc(-c3cnn4c3CC(C)(C)C4)c(Cl)cn2)C1 : 35 µM
CC(=O)N[C@@H]1CCC[C@H](C(=O)Nc2cc(-c3cnc(C)n3C)c(Cl)cn2)C1 : > 1000 µM
CC(=O)N[C@@H]1CCC[C@H](C(=O)Nc2cc(-c3cnn4c3OCCC4)c(Cl)cn2)C1 : 110 µM
CC(=O)N[C@@H]1CCC[C@H](C(=O)Nc2cc(-c3cnn4c3CCCC4)c(Cl)cn2)C1 : 310 µM
CC(=O)N[C@@H]1CCC[C@H](C(=O)Nc2cc(-c3cnn4c3CCCC4)ccn2)C1 : 730 µM
CC(=O)N[C@@H]1CCC[C@H](C(=O)Nc2cc(-c3cnn4c3CC(C)(C)C4)c(C)cn2)C1 : 600 µM
CC(=O)N[C@@H]1CCC[C@H](C(=O)Nc2cc(-c3cnc4n3CC(C)(C)C4)c(Cl)cn2)C1 : 280 µM

[Q] If you can, please state the reported solubility value of `CC(=O)N[C@@H]1CCC[C@H](C(=O)Nc2cc(-c3cnn4c3COCC4)c(Cl)cn2)C1` .
[A] 220 µM

[Q] Next molecule: `CC(=O)N[C@@H]1CCC[C@H](C(=O)Nc2cc(-c3cnn4c3NCCC4)c(Cl)cn2)C1`
[A] 860 µM

* * *

Assay: Half-life in Han Wistar rat at […], iv formulated as solution
Format: ADME, organism-based
Conditions: in vivo, dose 1.3 µmol/kg
measurement-type: half-life (min)
Form entry: value (min) — number only.

[Q] If you can, please state the reported half-life value of `COc1cc(F)ccc1-c1ccnc(NC(=O)[C@H]2CCC[C@@H](NC(C)=O)C2)c1` .
[A] 13.2

* * *

Target: CDK9/cyclin T1 (Homo sapiens)
Sequence (O60563 whole entry, the tested form may be a part): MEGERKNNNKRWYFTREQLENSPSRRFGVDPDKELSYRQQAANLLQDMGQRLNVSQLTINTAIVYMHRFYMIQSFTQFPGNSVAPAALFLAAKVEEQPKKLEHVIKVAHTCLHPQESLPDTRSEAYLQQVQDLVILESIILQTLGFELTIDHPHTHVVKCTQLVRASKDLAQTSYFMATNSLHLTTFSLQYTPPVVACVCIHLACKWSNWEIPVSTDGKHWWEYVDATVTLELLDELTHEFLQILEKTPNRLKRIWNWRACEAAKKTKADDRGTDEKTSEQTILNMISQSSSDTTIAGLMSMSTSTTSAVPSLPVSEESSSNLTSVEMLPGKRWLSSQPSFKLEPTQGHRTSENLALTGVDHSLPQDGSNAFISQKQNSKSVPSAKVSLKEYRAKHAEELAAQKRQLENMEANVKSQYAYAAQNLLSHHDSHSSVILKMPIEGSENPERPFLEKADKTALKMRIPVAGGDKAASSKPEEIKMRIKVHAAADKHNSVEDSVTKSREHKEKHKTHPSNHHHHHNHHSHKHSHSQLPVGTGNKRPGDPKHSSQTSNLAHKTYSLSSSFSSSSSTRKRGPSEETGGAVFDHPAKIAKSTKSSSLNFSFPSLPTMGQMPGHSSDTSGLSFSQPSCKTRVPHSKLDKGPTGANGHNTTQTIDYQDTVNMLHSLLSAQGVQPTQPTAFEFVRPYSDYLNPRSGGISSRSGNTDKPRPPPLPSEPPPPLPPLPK
Sequence (P50750 whole entry, the tested form may be a part): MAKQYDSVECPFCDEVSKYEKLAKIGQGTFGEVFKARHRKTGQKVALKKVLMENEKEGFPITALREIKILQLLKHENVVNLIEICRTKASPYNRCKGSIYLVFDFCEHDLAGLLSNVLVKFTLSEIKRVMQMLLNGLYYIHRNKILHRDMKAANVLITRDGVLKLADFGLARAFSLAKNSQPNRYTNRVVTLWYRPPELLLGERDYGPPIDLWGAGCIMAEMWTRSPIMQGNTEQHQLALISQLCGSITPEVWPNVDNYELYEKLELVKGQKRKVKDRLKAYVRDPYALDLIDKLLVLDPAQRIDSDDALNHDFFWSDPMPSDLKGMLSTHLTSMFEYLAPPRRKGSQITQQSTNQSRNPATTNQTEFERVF
Test: Inhibition of recombinant full length human N-terminal GST-fused CDK9 (1 to 372 residues)/His-tagged CyclinT1 (1 to 726 residues) expressed in baculovirus infected insect cells using FITC-X-GSRTPMY-NH2 as substrate preincubated for 10 mins followed by MgCl2 addition and measured after 90 mins in presence of 5 mM ATP by mobility shift assay
pIC50 reference
Interpret pIC50 as the negative base-10 log of the concentration measured in mol/L.

CC(=O)N[C@@H]1CCC[C@H](C(=O)Nc2cc(-c3cnn4ccccc34)c(Cl)cn2)C1 : 7.21
CC(=O)N[C@@H]1CCC[C@H](C(=O)Nc2cc(-c3cnn4c3CC(C)C4)c(Cl)cn2)C1 (stereo in doubt; 28) : 7.59
CC(=O)N[C@@H]1CCC[C@H](C(=O)Nc2cc(-c3cnn4c3CCC4)c(Cl)cn2)C1 : 6.74
CC(=O)N[C@@H]1CCC[C@H](C(=O)Nc2cc(-c3cnc(C)n3C)c(Cl)cn2)C1 : 5.28
CC(=O)N[C@@H]1CCC[C@H](C(=O)Nc2cc(-c3cnc(C)n3C(C)C)ccn2)C1 : 6.42
CC(=O)N[C@@H]1CCC[C@H](C(=O)Nc2cc(-c3cnn(C)c3C)c(Cl)cn2)C1 : 6.57

Now for the compound whose pIC50 we want.
[Q] If you can, please state the reported pIC50 value of CC(=O)N[C@@H]1CCC[C@H](C(=O)Nc2cc(-c3cnn4c3CC(C)C4)c(Cl)cn2)C1 (stereo in doubt; 27) .
[A] 7.57
